Numbers sourced from paper PMC11472053.

Molecular target: T1, BANP BEN WT (human, UniProt Q8N9N5 205-325)
T1 sequence: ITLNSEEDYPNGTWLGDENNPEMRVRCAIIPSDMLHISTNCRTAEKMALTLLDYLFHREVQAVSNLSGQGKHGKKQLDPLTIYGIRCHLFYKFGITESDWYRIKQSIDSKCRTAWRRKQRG
Assay: ITC; ITC: 20 mM Tris pH 7.5, 200 mM NaCl, 2 mM beta-mercaptoethanol, 20 C; EMSA: 20 mM Tris pH 7.0, 200 mM NaCl, 2 mM DTT, 4 C, 1.2% agarose in TAE
Settings: protein: recombinant; tags: His-SUMO or His-MBP, cleaved; chain copies: 2; blunt, self-complementary
Property measured: pKd
# log scale: pKd equals minus log10 of the concentration in mol/L

Exam item: Which value of pKd has been reported for 12-mCGCG (dsDNA, 5-methyl-C at position 5 of each strand (palindrome; called hemi-methylated, one CpG methylated)) DNA 1: ATCTCGCGAGAT DNA 2: ATCTCGCGAGAT in the records?
Marked response: 5.25
